conditions: in dichloromethane, 298.15 K
QUANTITY: solubility (mole fraction)
Please give the numeric answer without any surrounding text.

Ask: Which value of solubility (mole fraction) has been reported for CCOc1ncc(C)c2c1[C@H](c1ccc(C#N)cc1OC)C(C(N)=O)=C(C)N2 in the records?
Reply: 0.00724

###

conditions: in ethyl acetate, 298.15 K
QUANTITY: solubility (mole fraction)
Please give the numeric answer without any surrounding text.

Ask: Which value of solubility (mole fraction) has been reported for CCOc1ncc(C)c2c1[C@H](c1ccc(C#N)cc1OC)C(C(N)=O)=C(C)N2 in the records?
Reply: 0.00182

###

conditions: in isopropanol, 283.15 K
QUANTITY: solubility (mole fraction)
Please give the numeric answer without any surrounding text.

Ask: Which value of solubility (mole fraction) has been reported for CCOc1ncc(C)c2c1[C@H](c1ccc(C#N)cc1OC)C(C(N)=O)=C(C)N2 in the records?
Reply: 0.000443
